Cited source for all entries: patent US20210395256A1

experiment: Plasma protein binding (equilibrium dialysis), rat; assay type: in vitro ADME; conditions: pH 7.4, 6 hours dialysis, read-out: Mean % Bound Rat (converted)
value kind: fraction unbound at 6 h, 1 μM

Example entries begin here.
C[C@@H](O)c1nnc(-c2cnn3ccc(N4CCC[C@@H]4c4cc(F)ccc4F)nc23)[nH]1    0.109
Cc1nnc(-c2cnn3ccc(N4CCCC4c4cc(F)ccc4F)nc23)[nH]1 (stereo not drawn) [Comparative compound A, reference compound]    0.0729
CC(C)(O)Cc1nnc(-c2cnn3ccc(N4CCC[C@@H]4c4cc(F)ccc4F)nc23)[nH]1    0.174
OC1CC(c2nnc(-c3cnn4ccc(N5CCC[C@@H]5c5cc(F)ccc5F)nc34)[nH]2)C1 (stereo partly drawn)    0.131
C[C@@H](CO)c1nnc(-c2cnn3ccc(N4CCC[C@@H]4c4cc(F)ccc4F)nc23)[nH]1    0.116

1. C[C@H](N)c1nnc(-c2cnn3ccc(N4CCC[C@@H]4c4cc(F)ccc4F)nc23)[nH]1
2. C[C@H](O)c1nnc(-c2cnn3ccc(N4CCC[C@@H]4c4cc(F)ccc4F)nc23)[nH]1
3. OC1(c2nnc(-c3cnn4ccc(N5CCC[C@@H]5c5cc(F)ccc5F)nc34)[nH]2)CCC1
4. NC1(c2nnc(-c3cnn4ccc(N5CCC[C@@H]5c5cc(F)ccc5F)nc34)[nH]2)CCC1
Query: With regard to fraction unbound at 6 h, 1 μM, arrange the entries in ascending order, please. Order the labels as requested and give them as your answer.
Reply: 3, 2, 4, 1

* * *

test: Liver microsomes metabolic stability assay, mouse; type: in vitro ADME; details: male, mouse liver microsomes 0.5 mg/mL, 37° C., read-out: t1/2 Mouse
value kind: half-life at 2 μM (min)

CC(C)(O)Cc1nnc(-c2cnn3ccc(N4CCC[C@@H]4c4cc(F)ccc4F)nc23)[nH]1    38.9

I. COc1cc2[nH]c(-c3cnn4ccc(N5CCC[C@@H]5c5cc(F)ccc5F)nc34)nc2cc1Cl
II. COc1cc2nc(-c3cnn4ccc(N5CCC[C@@H]5c5cc(F)ccc5F)nc34)[nH]c2cc1C#N
Query: Recorded half-life at 2 μM values differ for I and II ; which one is higher? Return value: the label identifying the chosen record.
Reply: II

* * *

molecular target: Ba/F3-ETV6-NTRK3 (Homo sapiens, UniProt Q16288); construct: Ba/F3 cells with TPM3-NTRK1 or ETV6-NTRK3 fusion mutation gene stably overexpressed named Ba/F3-TPM3-NTRK1 and Ba/F3-ETV6-NTRK3; fused on or other part: P41212 (Transcription factor ETV6); assay: Ba/F3-ETV6-NTRK3 cells proliferation assay; conditions: 72 h, CellTiter Glo
Sequence (Q16288 whole entry, the tested form may be a part): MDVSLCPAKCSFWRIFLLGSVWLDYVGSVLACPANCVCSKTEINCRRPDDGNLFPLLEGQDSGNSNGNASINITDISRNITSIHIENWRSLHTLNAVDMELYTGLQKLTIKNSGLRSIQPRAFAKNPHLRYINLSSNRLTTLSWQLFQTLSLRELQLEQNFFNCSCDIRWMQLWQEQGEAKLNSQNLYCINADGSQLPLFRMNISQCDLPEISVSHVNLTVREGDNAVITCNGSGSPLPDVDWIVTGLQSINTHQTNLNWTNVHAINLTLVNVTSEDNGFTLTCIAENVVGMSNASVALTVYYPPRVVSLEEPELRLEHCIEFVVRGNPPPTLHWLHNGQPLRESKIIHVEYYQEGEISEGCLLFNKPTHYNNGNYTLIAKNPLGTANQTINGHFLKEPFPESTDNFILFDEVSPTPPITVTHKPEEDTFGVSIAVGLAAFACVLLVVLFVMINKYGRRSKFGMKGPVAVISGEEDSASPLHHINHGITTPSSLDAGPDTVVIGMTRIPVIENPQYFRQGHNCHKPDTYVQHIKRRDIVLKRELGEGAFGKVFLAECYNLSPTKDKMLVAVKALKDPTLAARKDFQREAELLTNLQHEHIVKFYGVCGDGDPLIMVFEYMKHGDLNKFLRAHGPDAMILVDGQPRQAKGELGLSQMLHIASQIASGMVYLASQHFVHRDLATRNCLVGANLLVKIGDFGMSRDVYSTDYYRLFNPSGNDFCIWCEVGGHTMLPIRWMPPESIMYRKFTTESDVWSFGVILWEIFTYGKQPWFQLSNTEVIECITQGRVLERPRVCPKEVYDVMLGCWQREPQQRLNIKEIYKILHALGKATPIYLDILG
pIC50: −log10 of the molar value.
value kind: pIC50

# annotated cases, reported pIC50 shown
COC(=O)N[C@@H](C)c1nnc(-c2cnn3ccc(N4CCC[C@@H]4c4cc(F)ccc4F)nc23)[nH]1    8.57
CS(=O)(=O)c1cc2nc(-c3cnn4ccc(N5CCC[C@@H]5c5cc(F)ccc5F)nc34)[nH]c2cc1C#N    8.60
C[C@H](O)c1nnc(-c2cnn3ccc(N4CCC[C@@H]4c4cc(F)ccc4F)nc23)[nH]1    8.56
O=C(O)c1cc2nc(-c3cnn4ccc(N5CCC[C@@H]5c5cc(F)ccc5F)nc34)[nH]c2cc1F    7.68
O=C(O)c1nnc(-c2cnn3ccc(N4CCC[C@@H]4c4cc(F)ccc4F)nc23)[nH]1    8.45

I. COC(=O)c1cc2nc(-c3cnn4ccc(N5CCC[C@@H]5c5cc(F)ccc5F)nc34)[nH]c2cc1OC
II. Fc1ccc(F)c([C@H]2CCCN2c2ccn3ncc(-c4nnc(-c5cnccn5)[nH]4)c3n2)c1
Query: Choose between I and II : whose measured pIC50 value is numerically larger? // output: label of the selected item
Reply: I
(I: 9.28, II: 8.92)

P. COC(=O)[C@@H]1CCCN1c1cc2[nH]c(-c3cnn4ccc(N5CCC[C@@H]5c5cc(F)ccc5F)nc34)nc2cc1C#N
Q. Oc1ccc(-c2nnc(-c3cnn4ccc(N5CCC[C@@H]5c5cc(F)ccc5F)nc34)[nH]2)cc1
Query: Recorded pIC50 values differ for P and Q ; which one is higher? Response format: the label of the selected entry.
Reply: Q
(Q: 8.68, P: 8.11)

A. COc1cc2nc(-c3cnn4ccc(N5CCC[C@@H]5c5cc(F)ccc5F)nc34)[nH]c2cc1C#N
B. C[C@H](N)c1nnc(-c2cnn3ccc(N4CCC[C@@H]4c4cc(F)ccc4F)nc23)[nH]1
Query: Choose between A and B : whose measured pIC50 value is numerically larger? Answer with the label corresponding to your selection.
Reply: A
(A: 8.66, B: 8.24)

* * *

Each entry below carries its reported IC50.
biological target: TrkA kinase (Homo sapiens, UniProt P04629); test: TrkA kinase assay (mobility shift assay); format: biochemical; settings: class symbols; read-out: Trk A Kinase IC50
Sequence (P04629 33-796): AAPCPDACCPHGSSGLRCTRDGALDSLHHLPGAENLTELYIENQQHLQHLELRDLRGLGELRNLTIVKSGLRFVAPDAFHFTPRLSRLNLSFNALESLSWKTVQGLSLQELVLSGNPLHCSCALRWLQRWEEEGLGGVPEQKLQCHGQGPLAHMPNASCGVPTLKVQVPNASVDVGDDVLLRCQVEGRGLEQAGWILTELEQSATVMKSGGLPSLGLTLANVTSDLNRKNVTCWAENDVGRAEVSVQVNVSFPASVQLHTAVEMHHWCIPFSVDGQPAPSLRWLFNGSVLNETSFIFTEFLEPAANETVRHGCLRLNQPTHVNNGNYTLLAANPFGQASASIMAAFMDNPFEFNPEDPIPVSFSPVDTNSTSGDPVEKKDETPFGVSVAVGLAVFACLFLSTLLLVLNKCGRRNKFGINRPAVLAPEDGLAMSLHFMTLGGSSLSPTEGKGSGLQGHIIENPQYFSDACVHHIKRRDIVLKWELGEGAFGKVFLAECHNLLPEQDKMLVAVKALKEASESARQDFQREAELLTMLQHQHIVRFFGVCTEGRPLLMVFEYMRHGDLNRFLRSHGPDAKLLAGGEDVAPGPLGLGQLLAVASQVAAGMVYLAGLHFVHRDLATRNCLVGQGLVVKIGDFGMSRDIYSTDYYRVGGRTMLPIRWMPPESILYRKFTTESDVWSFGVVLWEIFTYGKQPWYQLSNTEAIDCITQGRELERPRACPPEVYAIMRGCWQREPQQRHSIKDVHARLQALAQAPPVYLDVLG

Recorded results for 6 compounds are shown here.
N#Cc1cc2nc(-c3cnn4ccc(N5CCC[C@@H]5c5cc(F)ccc5F)nc34)[nH]c2cc1C(=O)O [Compound 153]    ≤ 10 nM
Fc1ccc(F)c([C@H]2CCCN2c2ccn3ncc(-c4nnc(C5CCNCC5)[nH]4)c3n2)c1 [Compound 22]    10 to 50 nM
COc1cc2oc(-c3cnn4ccc(N5CCC[C@@H]5c5cc(F)ccc5F)nc34)nc2cc1CN1CCC[C@H]1C(=O)O [Compound 180]    > 50 nM
OC1CCC[C@H](c2nnc(-c3cnn4ccc(N5CCC[C@@H]5c5cc(F)ccc5F)nc34)[nH]2)C1 (stereo partly shown) [Compound 18]    10 to 50 nM
COC(=O)N[C@@H](C)c1nnc(-c2cnn3ccc(N4CCC[C@@H]4c4cc(F)ccc4F)nc23)[nH]1 [Compound 12]    > 50 nM
Oc1ccc(-c2nnc(-c3cnn4ccc(N5CCC[C@@H]5c5cc(F)ccc5F)nc34)[nH]2)cc1 [Compound 9]    10 to 50 nM

Next compound, IC50 to be filled in.
Query: Report IC50, nothing else, for this compound: Fc1ccc(F)c([C@H]2CCCN2c2ccn3ncc(-c4nc5nccnc5[nH]4)c3n2)c1 [Compound 128]
Reply: ≤ 10 nM

* * *

molecular target: TrkA kinase (Homo sapiens); assay: TrkA kinase assay (mobility shift assay); assay type: biochemical; conditions: class symbols; read-out: Trk A Kinase IC50
Where a name gives a salt, the structure may show the parent alone.
A collection of compounds and their measured IC50

Solved cases below.
Fc1ccc(F)c([C@H]2CCCN2c2ccn3ncc(-c4nc5cc6c(cc5[nH]4)OCCOCCOCCO6)c3n2)c1    10 to 50 nM
CC(C)[C@H](N)C(=O)N[C@H](C(=O)O[C@@H](C)c1nnc(-c2cnn3ccc(N4CCC[C@@H]4c4cc(F)ccc4F)nc23)[nH]1)C(C)C [Compound 55, hydrochloride]    10 to 50 nM
N#Cc1cc2nc(-c3cnn4ccc(N5CCC[C@@H]5c5cc(F)ccc5F)nc34)[nH]c2cc1Br    ≤ 10 nM
Fc1ccc(F)c([C@H]2CCCN2c2ccn3ncc(-c4nc5ccc(N6CCN7CCC[C@@H]7C6)cc5s4)c3n2)c1    > 50 nM

Query: Report its IC50 with TrkA kinase (Homo sapiens) as the test system: COc1cc2nc(-c3cnn4ccc(N5CCC[C@@H]5c5cc(F)ccc5F)nc34)[nH]c2cc1C(C)O (stereo partly shown)
Reply: ≤ 10 nM

Query: Report IC50 on TrkA kinase (Homo sapiens) for this entry: COCCOc1cc2[nH]c(-c3cnn4ccc(N5CCC[C@@H]5c5cc(F)ccc5F)nc34)nc2cc1C#N
Reply: ≤ 10 nM

Query: Give IC50 for Cc1cc2[nH]c(-c3cnn4ccc(N5CCC[C@@H]5c5cc(F)ccc5F)nc34)nc2cc1C#N tested on TrkA kinase (Homo sapiens).
Reply: ≤ 10 nM

* * *

assay: Plasma protein binding (equilibrium dialysis), rat; type: in vitro ADME; conditions: pH 7.4, 6 hours dialysis
value kind: recovery at 6 h, 1 μM (%)

CC(C)(O)Cc1nnc(-c2cnn3ccc(N4CCC[C@@H]4c4cc(F)ccc4F)nc23)[nH]1 [Compound 30]    92.5
C[C@@H](O)c1nnc(-c2cnn3ccc(N4CCC[C@@H]4c4cc(F)ccc4F)nc23)[nH]1 [Compound 34]    92.4
C[C@@H](CO)c1nnc(-c2cnn3ccc(N4CCC[C@@H]4c4cc(F)ccc4F)nc23)[nH]1 [Compound 39]    89.7
C[C@H](N)c1nnc(-c2cnn3ccc(N4CCC[C@@H]4c4cc(F)ccc4F)nc23)[nH]1 [Compound 11]    87.5

* * *

biological target: CYP3A4 (Homo sapiens); construct: from tissue; host or cells: human liver microsomes; experiment: Cytochrome P450 inhibition, CYP3A4; assay type: in vitro ADME; conditions: probe Testosterone (50 μM); 10 μM compound, human liver microsomes, substrate Testosterone; read-out: Inhibition percentage CYP3A4 (Testosterone)
Sequence (P08684 whole entry): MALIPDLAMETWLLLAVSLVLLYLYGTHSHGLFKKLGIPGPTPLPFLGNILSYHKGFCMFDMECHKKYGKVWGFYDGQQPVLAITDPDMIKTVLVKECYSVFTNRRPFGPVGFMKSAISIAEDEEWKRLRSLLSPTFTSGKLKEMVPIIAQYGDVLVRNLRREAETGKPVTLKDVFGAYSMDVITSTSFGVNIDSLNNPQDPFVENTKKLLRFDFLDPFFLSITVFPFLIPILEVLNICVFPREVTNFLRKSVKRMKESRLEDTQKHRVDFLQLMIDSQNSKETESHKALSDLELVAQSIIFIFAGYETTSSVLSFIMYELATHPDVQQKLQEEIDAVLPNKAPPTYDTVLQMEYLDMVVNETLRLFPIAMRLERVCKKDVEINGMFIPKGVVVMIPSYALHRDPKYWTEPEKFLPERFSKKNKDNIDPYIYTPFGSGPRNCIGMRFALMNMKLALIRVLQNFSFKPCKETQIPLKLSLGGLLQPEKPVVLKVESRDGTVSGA
value kind: inhibition at 10 min, 10 µM (%)

OC(c1nnc(-c2cnn3ccc(N4CCC[C@@H]4c4cc(F)ccc4F)nc23)[nH]1)C(F)(F)F (stereo partly shown)    29.5
CC(C)(O)c1nnc(-c2cnn3ccc(N4CCC[C@@H]4c4cc(F)ccc4F)nc23)[nH]1    5.7

P. Cc1nnc(-c2cnn3ccc(N4CCCC4c4cc(F)ccc4F)nc23)[nH]1 (stereo not shown) [Comparative compound A, reference compound]
Q. C[C@H](O)c1nnc(-c2cnn3ccc(N4CCC[C@@H]4c4cc(F)ccc4F)nc23)[nH]1
Query: Short answer wanted: higher inhibition at 10 min, 10 µM, P or Q ? Output the label that corresponds to your choice.
Reply: P
